This collection of values is drawn from the supplement of paper PMC10567573.

Please respond with reported protein stability index for every item in the list.
B1: COX4I1 (parent)
chain: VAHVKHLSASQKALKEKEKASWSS

Variants of: B1
procedureText: protein stability index of a GFP-peptide fusion (GPS, HEK-293T) (PSI 1-6); higher = more stable;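 further: lentivirally expressed fusions sorted by FACS into six bins by GFP to DsRed ratio, PSI derived from sequencing read proportions per bin multiplied by bin number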
appliedConditions: c terminus: a fixed tail appended
Number, no unit, nothing else.

## Input Which protein stability index is listed for K17Y ?
## Output 3.06

## Input Which protein stability index is listed for V1A ?
## Output 3.05

## Input Which protein stability index is listed for V1L ?
## Output 2.95

## Input Which protein stability index is listed for Q11W ?
## Output 2.92
